experimental_target: T1, Full length human CD98hc on CHO cells (human)
T1 construct: CHO cells stably overexpressing it; also called CHO-human CD98hc; CHO-huCD98hc
T1 chain: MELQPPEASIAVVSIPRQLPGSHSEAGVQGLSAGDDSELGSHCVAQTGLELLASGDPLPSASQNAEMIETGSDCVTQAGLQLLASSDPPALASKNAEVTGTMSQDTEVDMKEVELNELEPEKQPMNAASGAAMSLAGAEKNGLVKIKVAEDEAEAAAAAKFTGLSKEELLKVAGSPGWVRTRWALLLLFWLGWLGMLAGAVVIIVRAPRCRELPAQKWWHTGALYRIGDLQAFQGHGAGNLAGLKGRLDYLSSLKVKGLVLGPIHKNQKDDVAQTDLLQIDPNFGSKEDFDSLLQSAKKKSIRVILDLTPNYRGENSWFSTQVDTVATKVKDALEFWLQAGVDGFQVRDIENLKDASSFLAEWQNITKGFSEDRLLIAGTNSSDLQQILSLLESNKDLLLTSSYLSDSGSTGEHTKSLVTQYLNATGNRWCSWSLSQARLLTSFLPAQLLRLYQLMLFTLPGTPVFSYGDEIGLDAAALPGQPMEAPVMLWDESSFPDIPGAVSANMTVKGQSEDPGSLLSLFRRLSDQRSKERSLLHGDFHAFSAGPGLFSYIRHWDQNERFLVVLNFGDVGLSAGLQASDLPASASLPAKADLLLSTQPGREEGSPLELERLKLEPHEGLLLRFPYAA
experiment: FACS, hybridoma supernatant
measurement_name: MFI ratio over secondary antibody
Simply state the number, no unit and no words.

Guide cases for MFI ratio over secondary antibody, answers given:
CD98HC.04.013 (antibody, V domains shown, hybridoma IgG) VH: EVQLVESGGDLGMPGGSLKLSCAASGFALSGYDMSWVRQTPDKRLEWVAYLSSGGGSTYYPYTVKGRFTISRDNAQNTLYLQMSSLKSEDTAIYYCARHSEVRPWFGYWGQGTLVTVSA VL: DIVMSQSPSSLAVSVGEKVTLTCKSSQSLLYSGNQKNYLAWYQQNPGQSPKLLIYWASTRESGVPDRFTGSGSGTDFTLTISSVKAEDLAVYYCQQYYTYPPTFGAGTKLGLK    21.2
CD98HC.04.062 (antibody, V domains shown, hybridoma IgG) VH: EVQLVESGGDLVKPGGSLKLSCTASRFAFSTYDMSWVRQTPEKRLEWVAYISSGGGSTYFPDTVKGRFTISRDNAKNTLYLQMSSLKSEDTAMYYCARQDGHYPWFPYWGQGTLVTVSA VL: DIVMSQSPSSLAVSVGEKVTMSCKSSQSLLYSGNQKTYLAWYQQKPGQSPKPLIYWASTRESGIPDRFTGSGSGTDFTLTISSVKAEDLAVYYCQQYYSYPPTFGAGTKLELK    25.1

Attention now turns to another entry.
Prompt: Given the binder CD98HC.04.046 (antibody, V domains shown, hybridoma IgG) VH: QIQLVQSGPVLKKPGETVKISCKASGYTFTNFGMNWVKQAPGKGLKWMGWIDTYTREPTYVDDFKGRFAFSLETSVTTAYLQINDLKNEDSATYFCARGESHWYFDVWGAGTTVTVSS VL: QIVLTQSPAIMSASLGERVTMTCIVSSSVSSSYLYWYQQKPGSSPKLWIYSTSILASGVPGRFSGSGSGTSYSLTISSMEAEDAATYYCHQYHRSPPTFGGGTKLEIK , what is its reported MFI ratio over secondary antibody?
Completion: 27.7

Cited source: patent US20250270341A1
